Where do the numbers come from? From PubChem BioAssay.

- EXPERIMENT_SUMMARY: CREB reporter modulators without forskolin, primary screen, cell-based, PC12, CRE-LacZ reporter, unstimulated (AID 1145)
- CONDITION_DESCRIPTION: no forskolin, luminescence, 4.5 h, higher = more signal, called active from +8 up or from −8 down
REPORTED_PROPERTY: z-score
The response must contain the number and no unit.

CON=C[C@@H](C)[C@H](OCc1ccccc1)C(C)C | 0.987
CCOC(=O)NN=C1C[C@@H](O)[C@@H](O)[C@@H]2[C@@H]3C(=O)N(Cc4ccccc4)C(=O)[C@@H]3CC[C@H]12 | -0.837
CC(C)=CCCC(C)=CCON=C1C[C@@H](O)[C@@H](O)[C@@H]2[C@@H]3C(=O)N(c4cccc(Oc5ccccc5)c4)C(=O)[C@@H]3CC[C@@H]12 | 2.51
O=C1C2=CC[C@H]3C(=O)N(c4cccc(Oc5ccccc5)c4)C(=O)[C@H]3[C@H]2[C@H](O)[C@@H]2O[C@H]12 | 0.699
O=C1[C@H]2[C@H]3[C@H](O)[C@H](O)CC(=NOC[C@@H](O)COCc4ccco4)[C@H]3CC[C@H]2C(=O)N1C[C@@H]1CCCO1 | 0.424

Entry CCOC(=O)[C@H](CC(C)C)NC(=O)CCC1CC(OC(=O)NCCc2ccc(F)cc2)CC2(CCCC(COC(=O)NCC(c3ccccc3)c3ccccc3)O2)O1 (stereo partly drawn) : reported z-score = ?
-0.438

Value lookup for z-score; key = COc1cccc([C@H]2Oc3ccc(OC)cc3C(=NO[C@@H](C)c3cn([C@H](CO)Cc4ccccc4)nn3)[C@@H]2O)c1
6.77

For the molecule shown here, COC(=O)NCC=Cc1nc(CCCO)co1 , give the reported z-score.
0.286

###

- EXPERIMENT_SUMMARY: basal RPMI8226 viability, no added stimulus, profiling panel, cell-based, calcein-AM fluorescence, 48 h, PK04 Diversity Set (AID 1166);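 also: cells grown under basal conditions without added stimulus; test concentration not given here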
- CONDITION_DESCRIPTION: RPMI8226 myeloma viability, higher = more signal
API: label(entry) gives Fulfilled if the entry's z-score is strictly smaller than 0.1; on equality or larger values it gives Not fulfilled.

COC(=O)NCC=Cc1nc(CCCO)co1 | Fulfilled
Cc1cc2c(c(=O)o1)[C@@H](O)[C@H]1O[C@H]1C2=O | Fulfilled
CCOC(=O)[C@H](CC(C)C)NC(=O)CCC1CC(OC(=O)NCc2cccc3ccccc23)CC2(CCCC(COC(=O)NCCOC)O2)O1 (some centres not stated) | Not fulfilled
CC(C)(C)N1C(=O)[C@H]2[C@H]3[C@H](O)[C@H](O)CC(=NOCc4ccccc4)[C@H]3CC[C@H]2C1=O | Fulfilled

Does the reported z-score of the following compound sit strictly below 0.1? COC(=O)CC=C[C@@H](C)[C@@H](C=NO[C@H](C)c1cn([C@H](CO)Cc2ccccc2)nn1)OC
Fulfilled

Lab log: compare recorded z-score with 0.1; is it strictly lower for COc1ccc(O[C@H]2C=C[C@@H](c3ccccc3)O[C@@H]2COC(=O)CCC(C)=NOC(C)CN2CCCc3nc(C)c(C)cc32)cc1 (some centres not stated) ?
Fulfilled

Bench note: check whether COc1ccc(O[C@H]2C=C[C@@H](c3ccccc3)O[C@@H]2CON=C(C)CCC(=O)OC[C@H]2O[C@H](c3ccccc3)C=C[C@@H]2Oc2ccc(OC)cc2)cc1 shows z-score below 0.1
Fulfilled

Criterion: z-score strictly below 0.1. Is it met by COC(=O)[C@H]1O[C@@H](c2c(OC)c(OC)c(C)c(OC)c2OC)[C@H](C)[C@@H](O)[C@H]1C ?
Not fulfilled

Report whether reported z-score is lower than 0.1 (strictly) for CCOC(=O)[C@H](CC(C)C)NC(=O)CCC1CC(OC(=O)NCc2ccc3c(c2)OCO3)CC2(CCCC(COC(=O)NCC(c3ccccc3)c3ccccc3)O2)O1 (some centres not stated)
Not fulfilled

###

- Tested on: wheat germ agglutinin (Triticum aestivum), Alexa647-labelled
- EXPERIMENT_SUMMARY: wheat germ agglutinin binders on compound microarrays, profiling panel, artefact control for SMM control-protein annotation, biochemical, small-molecule microarray, 635/667 nm fluorescence (AID 1140);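 also: score merges 667 nm feature emission with signal to noise over triplicate slides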
- CONDITION_DESCRIPTION: WGA-A647 binding, 635 nm fluorescence, higher = more signal
Hi, to clarify the labels: satisfied covers composite z-score from 0.05 upward, not satisfied covers anything below 0.05.

Study these solved cases before continuing.
COC(=O)CC=C[C@@H](C)[C@@H](C=NO[C@H](C)c1cn([C@H](CO)Cc2ccccc2)nn1)NS(=O)(=O)c1ccc(C)cc1 | satisfied
COCOc1ccc(Br)cc1C(=O)[C@@H]1O[C@H]1c1cccc(OC)c1 | satisfied
CCN1C(=O)[C@H]2[C@H]3[C@H](O)[C@H](O)CC(=NO[C@@H](C)c4cn([C@H](CO)Cc5ccccc5)nn4)[C@@H]3CC[C@H]2C1=O | satisfied

composite z-score >= 0.05 for Cc1cc2c(c(=O)o1)[C@@H](O)[C@H]1O[C@H]1C2=O ?
satisfied

Determine whether this compound has composite z-score no lower than 0.05: CO[C@@H]1COC(=O)CC=C[C@@H](C)[C@H](OC)COC(=O)[C@@H](C)COC(=O)CC=C[C@H]1C
not satisfied

State whether the measured composite z-score reaches 0.05, counting equality as reaching it, for O=C1C2=CC[C@H]3C(=O)N(c4cccc(Oc5ccccc5)c4)C(=O)[C@H]3[C@H]2[C@H](O)[C@@H]2O[C@H]12
not satisfied

###

- System: Sam68 (KHDRBS1)
- EXPERIMENT_SUMMARY: Sam68 small-molecule binders, primary screen, biochemical, small-molecule microarray, 635 nm fluorescence (AID 1125);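 also: score merges 667 nm channel intensity with signal to noise over triplicate slides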
- CONDITION_DESCRIPTION: small-molecule microarray binding, higher = more signal
Given measured composite z-score, output yes if it is greater than or equal to 0.3 and no if not.

Worked examples follow.
C[C@@H](c1ccccc1)N1C(=O)[C@H]2[C@H]3[C@H](O)[C@H](O)CC(=NO[C@@H]4O[C@H](CO)[C@@H](O)[C@H](O)[C@H]4O)[C@@H]3CC[C@H]2C1=O | no
C[C@H]1COC(=O)[C@@H]2CCCN2C(=O)[C@@H](C)COC(=O)[C@H](Cc2ccccc2)NC1=O | yes
CC(C)CON=C1C[C@@H](O)[C@@H](O)[C@@H]2[C@@H]3C(=O)N(C[C@@H]4CCCO4)C(=O)[C@@H]3CC[C@@H]12 | no

Consider the additional compound presented here.
Exam item: decide whether the reported composite z-score for O=C(NN=C1C[C@@H](O)[C@@H](O)[C@@H]2[C@@H]3C(=O)N(C[C@@H]4CCCO4)C(=O)[C@@H]3CC[C@@H]12)OCc1ccccc1 is at least 0.3.
yes

###

- Tested on: Plasmodium falciparum Sir2 (PF13_0152, Sir2A)
- EXPERIMENT_SUMMARY: pfSir2 binders on small-molecule microarrays, primary screen, biochemical, small-molecule microarray, 635 nm fluorescence (AID 1098);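 also: score merges spot fluorescence intensity with its signal-to-noise ratio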
- CONDITION_DESCRIPTION: small-molecule microarray binding, fluorescence 635 nm; higher = more signal
composite z-score by entry:
Just the number.

The cases that follow already have their composite z-score on record.
O=C1[C@H]2[C@H]3[C@H](O)[C@H](O)CC(=NOCc4ccccc4)[C@@H]3CC[C@H]2C(=O)N1c1ccc(F)cc1F | 0.0102
O=C(C=Cc1ccc2c(c1)OCO2)c1ccc(F)cc1 | 0.818

Give Plasmodium falciparum Sir2 (PF13_0152, Sir2A) composite z-score for COc1ccc(COC(=O)NN=C2C[C@@H](O)[C@@H](O)[C@@H]3[C@@H]4C(=O)N(C5CCCCC5)C(=O)[C@@H]4CC[C@H]23)cc1
-0.378

###

Quick reference for composite z-score among some molecules
- ASSAY_TARGET: Epidermal growth factor receptor (Homo sapiens)
- EXPERIMENT_SUMMARY: EGFR binders on small-molecule microarrays, primary screen, biochemical, small-molecule microarray, 635 nm fluorescence (AID 1104);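 also: score merges 667 nm emission intensity with spot signal to noise over triplicate slides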
- CONDITION_DESCRIPTION: EGFR binding, higher = more signal
# output: bare number, no unit

CO[C@H]1COC(=O)CC=C[C@@H](C)[C@H](NS(=O)(=O)c2ccc(C)cc2)COC(=O)CCC[C@@H]1C | 0.484

I would be grateful if you could share the reported composite z-score for C[C@@H](c1ccccc1)N1C(=O)[C@H]2[C@H]3[C@H](O)[C@H](O)CC(=NO[C@@H]4O[C@H](CO)[C@@H](O)[C@H](O)[C@H]4O)[C@H]3CC[C@H]2C1=O .
0.425

Quick check: composite z-score of CO[C@H]1COC(=O)CC=C[C@H](C)[C@@H](OC)COC(=O)[C@H](C)COC(=O)CC=C[C@@H]1C ?
1.36

// query composite z-score value for entry CCOC(=O)[C@H](CC(C)C)NC(=O)CCC1CC(OC(=O)NCc2cccc3ccccc23)CC2(CCCC(COC(=O)NCc3ccncc3)O2)O1 (some centres not stated)
0.363

Suppose we examine the molecule CCN1C(=O)[C@H]2[C@H]3[C@H](O)[C@H](O)CC(=NOCC(C)C)[C@@H]3CC[C@H]2C1=O ; what composite z-score value has been reported?
0.767

Which composite z-score value is on record for O=C1C[C@@H](O)[C@@H](O)[C@@H]2[C@@H]3C(=O)N(Cc4ccc5c(c4)OCO5)C(=O)[C@@H]3CC[C@H]12 ?
0.368

Returns the measured composite z-score for the input molecule. Input: O=C1CCCC=C1C(CCc1ccccc1)OC(=O)c1ccc(Br)cc1 (configuration not stated)
0.362
